# System: KRAS-mutant PDC multicell tumor spheroid viability
# Experiment Summary: Anticancer human tumor 521955-158-R2-J5-PDC patient-derived pancreatic carcinoma cell line growth inhibition [KRAS2]
# Condition Notes: second compound 0.1 µM; first compound 0.0316 µM; hits give low values
Reported viability, T/C values follow for various compounds
Reported Metric: viability, T/C (%)

Compound	Target Or System	Unit Of Measurement	Value Observed
CC(C)NCC(C(=O)N1CCN(c2ncnc3c2C(C)CC3O)CC1)c1ccc(Cl)cc1 (stereo not drawn) + CNCc1ccccc1-c1csc(C(C)Nc2nc(C)nc3cc(OC)c(OC)cc23)c1	KRAS-mutant PDC multicell tumor spheroid viability	%	103
Cn1nccc1Nc1nccc(-c2cc3c(s2)C(C)(C)N(CCN2CCOCC2)C3=O)n1 + C=CC(=O)N1CCN(c2nc(=O)n(-c3c(C)ccnc3C(C)C)c3nc(-c4c(O)cccc4F)c(F)cc23)C(C)C1	KRAS-mutant PDC multicell tumor spheroid viability	%	98.9
CCNC(=O)CC1N=C(c2ccc(Cl)cc2)c2cc(OC)ccc2-n2c(C)nnc21 (stereo not drawn) + C=CC(=O)N1CCN(c2nc(=O)n(-c3c(C)ccnc3C(C)C)c3nc(-c4c(O)cccc4F)c(F)cc23)C(C)C1	KRAS-mutant PDC multicell tumor spheroid viability	%	99.4

###

Reported viability, T/C values follow for various compounds
# Test system: KRAS-mutant PDC multicell tumor spheroid viability
# Experiment Summary: Anticancer human tumor 521955-158-R2-J5-PDC cell line growth inhibition [KRAS2];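 also: viability read after seven days of drug exposure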
# Condition Notes: second compound 0.316 µM; first compound 0.0316 µM; hits give low values
# Source text: Multicellular complex tumor spheroid response to RAS pathway inhibitors in combination with a targeted agents in patient-derived cell lines with oncogenic KRAS variants from multiple cancer types A high-throughput screen of multi-cell type tumor spheroids was designed to identify active combinations of targeted small molecules and KRAS pathway inhibitors. […] Compounds. […] If the clinical Cmax for an agent had not been determined, the highest concentration tested was 10 microM. […]
Reported Metric: viability, T/C (%)

Compound	Target Or System	Value Observed
CC(C)n1nc(-c2ccc3oc(N)nc3c2)c2c(N)ncnc21 + C=CC(=O)N1CCN(c2nc(=O)n(-c3c(C)ccnc3C(C)C)c3nc(-c4c(O)cccc4F)c(F)cc23)C(C)C1	KRAS-mutant PDC multicell tumor spheroid viability	35.5
COc1cc2nccc(Oc3ccc(NC(=O)C4(C(=O)Nc5ccc(F)cc5)CC4)cc3)c2cc1OC + CNCc1ccccc1-c1csc(C(C)Nc2nc(C)nc3cc(OC)c(OC)cc23)c1	KRAS-mutant PDC multicell tumor spheroid viability	94.6
COc1cc2nccc(Oc3ccc(NC(=O)C4(C(=O)Nc5ccc(F)cc5)CC4)cc3)c2cc1OC + C=CC(=O)N1CCN(c2nc(OCC3CCCN3C)nc3c2CCN(c2cccc4cccc(C)c24)C3)CC1CC#N	KRAS-mutant PDC multicell tumor spheroid viability	89.9
CC(C)NCC(C(=O)N1CCN(c2ncnc3c2C(C)CC3O)CC1)c1ccc(Cl)cc1 (stereo not given) + C=CC(=O)N1CCN(c2nc(OCC3CCCN3C)nc3c2CCN(c2cccc4cccc(C)c24)C3)CC1CC#N	KRAS-mutant PDC multicell tumor spheroid viability	97.5
CC(=O)Nc1cccc(-n2c(=O)n(C3CC3)c(=O)c3c(Nc4ccc(I)cc4F)n(C)c(=O)c(C)c32)c1 + COc1cc2nc(C)nc(NC(C)c3cc(N)cc(C(F)(F)F)c3)c2cc1OC1CCOC1	KRAS-mutant PDC multicell tumor spheroid viability	8.98

###

# System: KRAS-mutant PDC multicell tumor spheroid viability
# Experiment Summary: Anticancer human tumor 521955-158-R2-J5-PDC cell line growth inhibition [KRAS2];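 also: viability read after seven days of drug exposure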
# Condition Notes: second compound 1 µM; first compound 0.001 µM; hits give low values
Decide using viability, T/C alone. Strictly below 80%: 1.0. Equal to or above 80%: 0.0.

Compound	Category Label
CN(C)C/C=C/C(=O)Nc1cc2c(Nc3ccc(F)c(Cl)c3)ncnc2cc1O[C@H]1CCOC1 + C=CC(=O)N1CCN(c2nc(=O)n(-c3c(C)ccnc3C(C)C)c3nc(-c4c(O)cccc4F)c(F)cc23)C(C)C1	0.0
CC(=O)Nc1cccc(-n2c(=O)n(C3CC3)c(=O)c3c(Nc4ccc(I)cc4F)n(C)c(=O)c(C)c32)c1 + CNCc1ccccc1-c1csc(C(C)Nc2nc(C)nc3cc(OC)c(OC)cc23)c1	1.0
CC(C)n1nc(-c2ccc3oc(N)nc3c2)c2c(N)ncnc21 + COc1cc2nc(C)nc(NC(C)c3cc(N)cc(C(F)(F)F)c3)c2cc1OC1CCOC1	1.0
CC(C)n1nc(-c2ccc3oc(N)nc3c2)c2c(N)ncnc21 + CC1OCC2(CCN(c3cnc(Sc4ccnc(N)c4Cl)c(N)n3)CC2)C1N	1.0
CC(C)n1nc(-c2ccc3oc(N)nc3c2)c2c(N)ncnc21 + C=CC(=O)N1CCN(c2nc(OCC3CCCN3C)nc3c2CCN(c2cccc4cccc(C)c24)C3)CC1CC#N	1.0
CN(C)C/C=C/C(=O)Nc1cc2c(Nc3ccc(F)c(Cl)c3)ncnc2cc1O[C@H]1CCOC1 + C=CC(=O)N1CCN(c2nc(OCC3CCCN3C)nc3c2CCN(c2cccc4cccc(C)c24)C3)CC1CC#N	0.0
CC(=O)Nc1cccc(-n2c(=O)n(C3CC3)c(=O)c3c(Nc4ccc(I)cc4F)n(C)c(=O)c(C)c32)c1 + COc1cc2nc(C)nc(NC(C)c3cc(N)cc(C(F)(F)F)c3)c2cc1OC1CCOC1	1.0
CC(C)n1nc(-c2ccc3oc(N)nc3c2)c2c(N)ncnc21 + CNCc1ccccc1-c1csc(C(C)Nc2nc(C)nc3cc(OC)c(OC)cc23)c1	0.0
CC(C)n1nc(-c2ccc3oc(N)nc3c2)c2c(N)ncnc21 + C=CC(=O)N1CCN(c2nc(=O)n(-c3c(C)ccnc3C(C)C)c3nc(-c4c(O)cccc4F)c(F)cc23)C(C)C1	0.0
CC(=O)Nc1cccc(-n2c(=O)n(C3CC3)c(=O)c3c(Nc4ccc(I)cc4F)n(C)c(=O)c(C)c32)c1 + C=CC(=O)N1CCN(c2nc(=O)n(-c3c(C)ccnc3C(C)C)c3nc(-c4c(O)cccc4F)c(F)cc23)C(C)C1	1.0
CN(C)C/C=C/C(=O)Nc1cc2c(Nc3ccc(F)c(Cl)c3)ncnc2cc1O[C@H]1CCOC1 + CC1OCC2(CCN(c3cnc(Sc4ccnc(N)c4Cl)c(N)n3)CC2)C1N	0.0

###

# System: KRAS-mutant PDC multicell tumor spheroid viability
# Experiment Summary: Anticancer human tumor 521955-158-R2-J5-PDC cell line growth inhibition [KRAS2];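 also: viability read after seven days of drug exposure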
# Condition Notes: second compound 0.1 µM; first compound 0.1 µM; hits give low values
Reported viability, T/C values follow for various molecules
Reported Metric: viability, T/C (%)

Molecule	Value Observed
CN(C)C/C=C/C(=O)Nc1cc2c(Nc3ccc(F)c(Cl)c3)ncnc2cc1O[C@H]1CCOC1 + COc1cc2nc(C)nc(NC(C)c3cc(N)cc(C(F)(F)F)c3)c2cc1OC1CCOC1	85
CC1OCC2(CCN(c3cnc(Sc4ccnc(N)c4Cl)c(N)n3)CC2)C1N (stereo not given) + CNCc1ccccc1-c1csc(C(C)Nc2nc(C)nc3cc(OC)c(OC)cc23)c1	83.1
O=C(c1cc(Cc2n[nH]c(=O)c3ccccc23)ccc1F)N1CCN(C(=O)C2CC2)CC1 + C=CC(=O)N1CCN(c2nc(=O)n(-c3c(C)ccnc3C(C)C)c3nc(-c4c(O)cccc4F)c(F)cc23)C(C)C1	120
CC1OCC2(CCN(c3cnc(Sc4ccnc(N)c4Cl)c(N)n3)CC2)C1N (stereo not given) + COc1cc2nc(C)nc(NC(C)c3cc(N)cc(C(F)(F)F)c3)c2cc1OC1CCOC1	83.6
CC1COCCN1c1cc(-c2ccnn2C)c2ccnc(-c3ccn[nH]3)c2n1 (stereo not given) + CNCc1ccccc1-c1csc(C(C)Nc2nc(C)nc3cc(OC)c(OC)cc23)c1	11.4
CC1(C)CCC(CN2CCN(c3ccc(C(=O)NS(=O)(=O)c4ccc(NCC5CCOCC5)c([N+](=O)[O-])c4)c(Oc4cnc5[nH]ccc5c4)c3)CC2)=C(c2ccc(Cl)cc2)C1 + C=CC(=O)N1CCN(c2nc(OCC3CCCN3C)nc3c2CCN(c2cccc4cccc(C)c24)C3)CC1CC#N	100
Cn1nccc1Nc1nccc(-c2cc3c(s2)C(C)(C)N(CCN2CCOCC2)C3=O)n1 + CC1OCC2(CCN(c3cnc(Sc4ccnc(N)c4Cl)c(N)n3)CC2)C1N	70.9
CCN1CCN(Cc2ccc(Nc3ncc(F)c(-c4cc(F)c5nc(C)n(C(C)C)c5c4)n3)nc2)CC1 + CNCc1ccccc1-c1csc(C(C)Nc2nc(C)nc3cc(OC)c(OC)cc23)c1	89.5
CC(C)n1nc(-c2ccc3oc(N)nc3c2)c2c(N)ncnc21 + CC1OCC2(CCN(c3cnc(Sc4ccnc(N)c4Cl)c(N)n3)CC2)C1N	24.6
CC1(C)CCC(CN2CCN(c3ccc(C(=O)NS(=O)(=O)c4ccc(NCC5CCOCC5)c([N+](=O)[O-])c4)c(Oc4cnc5[nH]ccc5c4)c3)CC2)=C(c2ccc(Cl)cc2)C1 + C=CC(=O)N1CCN(c2nc(=O)n(-c3c(C)ccnc3C(C)C)c3nc(-c4c(O)cccc4F)c(F)cc23)C(C)C1	116
